Molecular target: T1, Human PD-1 expressed on CHO-K1 cells (CHO-K1/hPD-1) (human, UniProt Q15116 25-288)
T1 construct: whole, on cells; also called CHO-K1 cells overexpressing human PD-1
T1 sequence (Q15116 25-288): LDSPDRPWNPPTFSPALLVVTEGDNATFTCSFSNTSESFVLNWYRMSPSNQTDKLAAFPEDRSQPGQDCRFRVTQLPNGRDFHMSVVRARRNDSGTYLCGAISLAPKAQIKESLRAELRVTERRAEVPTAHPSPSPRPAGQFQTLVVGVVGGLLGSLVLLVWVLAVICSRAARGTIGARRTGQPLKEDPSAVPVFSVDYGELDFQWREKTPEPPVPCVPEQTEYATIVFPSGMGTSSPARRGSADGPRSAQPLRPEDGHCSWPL
Assay: FACS blocking of biotin-labeled human PD-L2 binding to CHO-K1-hPD-1 cells
Entries and their IC50
Your answer should be a plain number; it is taken to be in nM.

Use the examples below as a reference point.
binder | measured.number
PR000674 (antibody, human IgG4 S228P, kappa, V domains shown, Fully human recombinant H2L2 antibody, human IgG4, kappa light chain; also called 4004_12H9C1) VH: QVQLVESGGGVVQPGKSLRLSCTVSGLTFSDNGMHWVRQAPGRGLEWMSVIWYDGSKKYYADSVKGRFTISRDNSKNTLYLQMNNMRVEDTAVYYCATNSDYWGQGTLVTVSS VL: EIVLTQSPATLSLSPGERATLSCRASQSVSSYLAWYQQKPGQAPRLLIYDTSKRATGIPARFSGSGSGTDFTLTISSLEPEDFAVYYCQQHNNWIFTFGPGTKVDIKR | 1.83
PR000675 (antibody, human IgG4 S228P, kappa, V domains shown, Fully human recombinant H2L2 antibody, human IgG4, kappa light chain; also called 4004_19G8F2) VH: EVQLLESGGGLVQPGGSLRLSCVDSGFTFSSYAMTWVRQAPGKGLEWVSGISGSGYSTYYADSVKGRFTISRDNSKKTLYLQMNSLRAEDTAVYYCAELSLDYWGQGTLVTVSS VL: EIVLTQSPATLSLSPGERATLSCRASQSVSRYLAWYQQKPGQAPRLLMHDAANRATGLPARFNGSGSGTDFTLTISSLEPEDFAVYYCQQRNNWPLTFGGGTKVEIKR | 19.7

Next binder, IC50 to be filled in.
Bench note: what IC50 did PR000673 (antibody, human IgG4 S228P, kappa, V domains shown, Fully human recombinant H2L2 antibody, human IgG4, kappa light chain; also called 4004_10H9A12) VH: QVQLVESGGGVVQPGRSLRLSCAASGFIFSNYGMHWVRQAPGKGLEWVAVIWYDGSKKYYGDSVKGRFTISRDNSKNTLYLQMNSLRDEDTAVYFCARNDDYWGQGTLVTVSS VL: EIVLTQSPATLSFSPGERATLSCRASQSVSSDLAWYQQKPGQAPSLLIYDASNRATGIPARFSGSGSGTDFTLTISSLEPEDFAVYYCHQRNNWPLTFGGGTKVEIKR show?
1.55
